molecular target: ROCK1 (Homo sapiens); test: biochemical
Sequence (Q13464 whole entry): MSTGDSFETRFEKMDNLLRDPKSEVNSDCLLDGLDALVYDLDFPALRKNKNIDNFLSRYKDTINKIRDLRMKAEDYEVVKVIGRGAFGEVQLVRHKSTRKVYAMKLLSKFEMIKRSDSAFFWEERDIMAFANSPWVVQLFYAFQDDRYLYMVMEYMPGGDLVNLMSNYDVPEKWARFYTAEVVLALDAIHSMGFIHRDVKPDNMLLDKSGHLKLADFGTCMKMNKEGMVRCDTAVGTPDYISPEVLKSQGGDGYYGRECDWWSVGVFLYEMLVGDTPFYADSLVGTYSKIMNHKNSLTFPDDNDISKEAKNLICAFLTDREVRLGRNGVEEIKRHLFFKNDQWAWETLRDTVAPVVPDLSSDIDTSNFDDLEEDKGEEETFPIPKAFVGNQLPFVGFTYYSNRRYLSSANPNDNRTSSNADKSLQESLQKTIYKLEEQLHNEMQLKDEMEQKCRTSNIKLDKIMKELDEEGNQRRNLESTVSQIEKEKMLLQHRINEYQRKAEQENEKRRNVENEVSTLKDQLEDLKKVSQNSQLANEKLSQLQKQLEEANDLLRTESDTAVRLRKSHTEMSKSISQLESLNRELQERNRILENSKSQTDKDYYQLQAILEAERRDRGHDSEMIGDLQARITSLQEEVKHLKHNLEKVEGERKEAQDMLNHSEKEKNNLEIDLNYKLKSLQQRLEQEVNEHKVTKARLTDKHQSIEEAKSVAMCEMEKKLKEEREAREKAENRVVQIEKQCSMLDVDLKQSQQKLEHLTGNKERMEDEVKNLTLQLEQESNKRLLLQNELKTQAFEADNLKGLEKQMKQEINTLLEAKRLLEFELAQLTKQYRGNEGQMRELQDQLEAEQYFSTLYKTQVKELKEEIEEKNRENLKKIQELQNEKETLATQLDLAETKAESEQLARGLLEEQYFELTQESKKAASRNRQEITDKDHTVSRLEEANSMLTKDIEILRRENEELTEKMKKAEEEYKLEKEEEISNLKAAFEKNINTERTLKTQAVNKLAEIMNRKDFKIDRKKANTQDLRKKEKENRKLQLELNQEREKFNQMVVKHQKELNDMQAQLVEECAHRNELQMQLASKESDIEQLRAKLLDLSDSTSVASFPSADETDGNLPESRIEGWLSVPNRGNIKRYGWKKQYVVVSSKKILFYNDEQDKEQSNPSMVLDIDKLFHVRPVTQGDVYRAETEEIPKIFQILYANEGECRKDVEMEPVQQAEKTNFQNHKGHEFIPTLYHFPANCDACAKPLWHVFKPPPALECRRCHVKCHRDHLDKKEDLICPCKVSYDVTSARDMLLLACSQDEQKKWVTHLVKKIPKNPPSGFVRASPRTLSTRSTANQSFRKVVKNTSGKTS
QUANTITY_MEASURED: IC50 (µM)

MOLECULE	QUANTITY_MEASURED	RECORDED_VALUE
O=C(N=c1sccn1Cc1ccccc1)c1c[nH]c2ncccc12 [TRULI]	IC50	0.088

---

target: NDR1 (Homo sapiens, UniProt Q15208); assay: biochemical
Sequence (Q15208 whole entry): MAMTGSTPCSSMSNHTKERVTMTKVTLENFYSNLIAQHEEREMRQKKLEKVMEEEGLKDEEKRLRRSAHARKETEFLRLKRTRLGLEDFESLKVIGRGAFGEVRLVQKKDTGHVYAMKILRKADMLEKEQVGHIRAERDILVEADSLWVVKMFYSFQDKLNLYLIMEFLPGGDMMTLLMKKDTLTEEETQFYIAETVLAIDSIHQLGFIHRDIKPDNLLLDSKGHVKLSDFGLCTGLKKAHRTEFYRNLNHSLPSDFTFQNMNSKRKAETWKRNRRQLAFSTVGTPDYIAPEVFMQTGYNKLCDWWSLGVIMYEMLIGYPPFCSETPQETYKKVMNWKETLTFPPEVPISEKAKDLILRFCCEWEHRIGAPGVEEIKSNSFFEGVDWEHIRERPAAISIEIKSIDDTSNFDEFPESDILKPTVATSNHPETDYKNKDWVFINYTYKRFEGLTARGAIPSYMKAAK
QUANTITY_MEASURED: IC50 (nM)

COMPOUND	READOUT_UNIT	RECORDED_VALUE
O=C(N=c1sccn1Cc1ccccc1)c1c[nH]c2ncccc12 [TRULI]	nM	1000

meta.source: paper PMC8149661
